- EXPERIMENTAL DETAILS: soluble on expression in E. coli; label from the status in PepcDB or PDB records
MEASURED METRIC: soluble on expression in E. coli

QUERY SEQUENCE	MEASUREMENT
MVSSLLMSFAPATVRVYATSTKGGSGGPKEEKNPIDFVLGFMTKQDQFYETNPLLKKVDEKEGTTTGGRGTVRGGKNSAPTPVPKKSEGGFGGLGSLFKK	not soluble
MTKENTKSIADDGPYSGSFYGLAEDNANHGIFSSILKRKKRQQDKLSEDVKKRCGRVESYKSCCDRLHQALMYMLVENAVTSKQLVTGARTEPHYRYAGQYLKTYEIIANQGRDKTKYESLEPAIKALLTLDSEHEKKVRKQLENLKPLTKFIGEDYWEYVRLKKVYAESVDGYDEAVVLQNKGKTEDAETAATNAQTWMNDCRTKLMDFITVSISQQKAKHADCVLKFRDESVSYHKIMADSITTPEPAEGKSVVKTLKQ	not soluble
MQLNATQLQAALPWDSLIEALKDIFVREVCSPVRHHHSINVPDKLSATLLLMPAWLEGEYLGIKQVNVFPSNNVSNIPALSSHYMLSCGKTGQPLMQLDGNELTARRTAAASALASAYLSREDARVMLMVGSGRMARRLITAHMSVRPIKIVQVWDRKEEKAQTLVTELKESGINAEVCKPDNLQAAAQQADIISCATMATSPLILGKWLKPGAHLDLVGSFTPTMRETDNAAMQLCSVFVDTRAGALSETGDLIIPIRDGAITQEKIIAEFTQLCSGEHRGRADLANPDNSITLFKSVGDSREDLAAAILAFEQCNQR	not soluble
MSLALNPAVAPIKSIEFIPVNYQASNWSQNTVVVKVTDENGVYGLGEADGSPDAILAYANIETEHKWLTNITEKAIGRLPIEINAIWDAMYDATQWQGMRGLGMFALSGIDMALYDLAGKQLGVPAYQLLGGTNKDKVHPYLTLYPAIPVDASLDVAIKGYAPLLEKAKAHNIRAVKVCVPIKADWSTKEVAYYLRELRGILGHDTDMMVDYLYRFTDWYEVARLLNSIEDLELYFAEATLQHDDLSGHAKLVENTRSRICGAEMSTTRFEAEEWITKGKVHLLQSDYNRCGGLTELRRITEMATANNVQVMPHNWKTGITSAAAIHYQFAVGNAPYFEYVHPEFCDGELRKYLVTPEAELVDGGFAKPTAPGLGIDLNQEFLASLEGHHHHHH	soluble
MGSDKIHHHHHHMIVLIGGEKGGSGKSCLAQNIAVFLTTECGASVIMVDCDPQRTTSDWIQARNNNPKLASINCVQLYGKIRNDLLSLEQHYDFVIVDCGGQDNLALRATMSVASHILMPLRPKRRDLKTVSHMDDIVATCKMINPKLHASFVITQCPNLPNQANRILEAKEICKTYDINVLDSITYSRNIYDDSEESGLSVLEIEPKGKAAAEIRAIACEMFQVDCAASLTALLKPSTSIAGHHSQINQNQSNHLRGQYGTQRPQEKRYAI	not soluble
MKKRAACLCFRSEREDEVLLVSSSRYPDRWIVPGGGMEPEEEPGGAAVREVYEEAGVKGKLGRLLGVFEQNQDPEHRTYVYVLTVTELLEDWEDSVSIGRKREWFKVEDAIKVLQCHKPVHAEYLEKLKAHHHHHH	soluble

---

- EXPERIMENTAL DETAILS: soluble on expression in E. coli; label from the status in PepcDB or PDB records

QUERY SEQUENCE	soluble on expression in E. coli
MNYYMHHIGDYKSDASYLSLQEHGIYFLLLSHYYATEKPIPADKTHTYRIAYARTKKEKSAVDFVLDTFFSLQEDGWHNKRCDEEIAAYKEGDAWHEHKEANKNGQNTRTRRHRKERSRLFAELKDHQVTPEWNMPIKELRLLHKKTCHAPVTAVTPPVTPVTPVTPVTPVTPTQEESFTGPSSSLRSEERLIRAENETSIKELRQWNAKTNAKTGNAPVTAVTAKPLTINPLTIISSSLCSEESLVFAEDGNATGSTGKPKRSPHGSRLPDD	not soluble
MGSDKIHHHHHHTQKPDITYMPQPPFNPPTYVCYKAPAPIKIDGKLSPGEWDAIPWTSDFVDIEGDKRPAPHFQTRAKMTYDDNGMYFAVLMEEPHVWATITEHDAVIFHDNDFEIFLNPTNDTHNYLEYEVNALGTEWDLFLTRPYRDNPQVLNNWEFTGMKSAVYVDGTLNNPKDTDKSWSVEVFIPWTSVFQMDRGKEKPEIGEQIRVNFSRVEWTTDVKDGKYVKVPIQGEDKIREYNWVWAPTGVINIHMPEYWGYVQISDKIAGEGETPFVKHPSEETKWILRNLYYRQNEFAATFGHYADNINDLKANELCPQEIANQLEIHTTPSMYEISLPAPDGTVWNIRQDGLVWPKKK	not soluble

---

- EXPERIMENTAL DETAILS: soluble on expression in E. coli; label from the status in PepcDB or PDB records
MEASURED METRIC: soluble on expression in E. coli

QUERY SEQUENCE	MEASUREMENT
MGSDKIHHHHHHMLTKERTLQYFHEYFSEWIEIYKRGAVRPVTYQKYLMTLQRLTELSPNLKICELDKRKYQTLLNDYAKTHERQTTMDFHHHLKSAILDAMDEGLLTIDPTRKVIIKGKPVSDKKNKFLSQFELQSLLKSLNLTDKPNWDWFILLVAKTGLRFSEALALTPKDFDFECQKVKISKTWNYKNAEGGFGETKNLSSKRTIQIDIQLNTQIERLSKDLADDEPIFVQGRVFNSTVNNRLKVLCKKAGVPIISAHCLRHTHASLLIFAGVSIASIAKRLGHSSISTTQETYLHIIKELESQDNDKIMSHLSMITQ	not soluble
GPGSMNIQGMALHGHMKPVTMIKFNREGDLLFSTAKEPNVSVWYTKTGERLGTYDGHSAISACDVNNYSTLLVTGGMDFKAKLWCVETGEELANIMLRTPARAVGFSHDDNLLMVSTSRKMGQKSAVQLYNLPFLPPKDGYSIHPVNTVFNPCTEFVSENDDVTFAIWGPTNDTIYYSTSDGSVAILDVETMSTVCTHKPHEETINRISFDSNYYTLITASKDKTARLLDSRDLSVVQTYTSDVPVNDASISPRGDHVIIGGGMDAQDVTTQGGQTTFEVKFYHKVHEKQLGQVRCHFGTINSVCFFPDGRGFASGAFDGLVKLHRFDDKYSSTPGAIPLWTPEGI	not soluble

---

- EXPERIMENTAL DETAILS: soluble on expression in E. coli; label from the status in PepcDB or PDB records

QUERY SEQUENCE	soluble on expression in E. coli
MGSDKIHHHHHHMKTFHLTTQSRDEMVDITSQIETWIRETGVTNGVAIVSSLHTTAGITVNENADPDVKRDMIMRLDEVYPWHHENDRHMEGNTAAHLKTSTVGHAQTLIISEGRLVLGTWQGVYFCEFDGPRTNRKFVVKLLTD	soluble
GMSKIFNEELAVIEAAAIAYLTAFNRADIPAVIATYTDDGVLMGPGRPAAVGKDELAEVYLSVFETVGFDMAYEIKEVVQTSADWAFVRSATEGTETNKATGVVTPAAYQELFLLRKSATGSWQTARYCTSKISP	soluble

---

- EXPERIMENTAL DETAILS: soluble on expression in E. coli; label from the status in PepcDB or PDB records
MEASURED METRIC: soluble on expression in E. coli

QUERY SEQUENCE	MEASUREMENT
MVVGVAGYYGFRNAGDEAILEAIARELKARGHEVVALSGDPKRTREDHGLRAYHRLNPLALLRADLWLLGGGGLLQDATSALSLTYYLSVLRLARLFRKRVVVFNQSLGPLSPWGERRVRKALQGVPVILRDQDSLEYARRLGIPAALGADPALLLPPPPVPREEDLVLVIPRAGVREEALTTLYVAANHLVHEGKQVLVLLLQPGYDDEVAEVFRLHRIERTSDPRRLLYLAAQAGYVISMRLHGLILAAAAGTPFAALSYDPKVAAFAKETGAYYQELPGEPIKLYKAALYGRFPDWEKVARLKERARQSFDLALGEGVPIKGSGRG	soluble
MGSDKIHHHHHHMEEKLSDVKVSGSGSIGGGNYDEVKISGSAKINGNVNCNSYMCSGSSTANGNITAKEIVKISGTTKVHGDLNSGDLIVSGSSRTFGNVTAKKIKISGSSDIEGNVHTDSIDISGSVSIGEDCEAEHFHARGGFEIAGLLNAGDIEIYMYGKCRVKDIGGENITVKLGSGHFIHEMMNLFFTRGRLVTSIIEGDNIYLEHTDAKIVRGNNITIGPNCNIENIEYKNQLNMDQSCKALCKKVDE	not soluble
PTRQVLQGSRCRLEPLTLAHASDLFAAHQLAPDARSWTWLLREPESNLAEFSAWVEQVATLADPIHFAVVDQQRGKAVGSLALMRIDIAHGVVEVGHVHFSPLLSRTAMATEAHWLLMQYVFDTLGYRRYEWKCNSLNIPSARAARRLGFQYEGRFRQALVSKGHNRDTDWFSVIDGEWPELDNAMRQWLAADNFTA	not soluble
MSLKTWFITGTSSGFGKELATIVARQSDTQLIAAARHTDDLAYLDVFDATRIEKVSIDVTNESQIKTGVAQAIQRFGTIDVLVNNAGLGYFSTIEESDMAKVRYMFEVNVMGLANVTRTVLPTMRAHHAGIIINLSSALALTTLPTMGFYSATKYAVEGYSDTLRQEVKDLGIQIMTVEPSGARTQWSGRSSQKMVPTIADYAAFSDAITTVSDSVTQAPGNPHRIAQVMFDQANLAEVPAHLPLGEFAYQGGLANLQSIVSEIKSREDLSLSTDEGHHHHHH	not soluble
MDQTQNTIAGIGEINGSIKTEINAIATVDDSNEKLNQIINSNQKILELLHQLKLTVSSFTPASQLHLLQRLNSLVMELDNMAKLSDKCNIQVPIEVLNLIDDGKNPDEFTKDVLNKNCIAKNQVTKGKSDAFKGLRKHLLEELEQAFPDEVDRYRDIRASYAAEAKRLAQTQSVLPNGDAKVKSEL	soluble
MGSDKIHHHHHHMSIYNSIGKQYSQTRVPDIRIVNAIINLLNLPKGSVIADIGAGTGGYSVALANQGLFVYAVEPSIVMRQQAVVHPQVEWFTGYAENLALPDKSVDGVISILAIHHFSHLEKSFQEMQRIIRDGTIVLLTFDIRLAQRIWLYDYFPFLWEDALRFLPLDEQINLLQENTKRRVEAIPFLLPHDLSDLFAAAAWRRPELYLKAEVRAGISSFALANQDLVEKGLELLTADLNNGEWIRKYGEIHHLQEIDIGYRFIYTTLDK	not soluble

All figures here come from the DeepSol protein solubility set.
